# Protocol Details: recombinant UMI read abundance after kanamycin selection (control-corrected) (log10(CPM+1)); higher = more efficient recombination; extreme values may be limits of the assay; sequences stand for … in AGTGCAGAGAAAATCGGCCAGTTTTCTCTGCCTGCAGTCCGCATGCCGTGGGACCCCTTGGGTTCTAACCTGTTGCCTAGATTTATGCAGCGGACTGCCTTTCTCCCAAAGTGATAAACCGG…AGGTTGGTTTCACT; site = the 11-nt donor;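 also: IS621 bridge recombinase in Escherichia coli cells against a fixed T5 target plasmid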
Mark 0 (no) for recombinant UMI read abundance (log10) values under 0.02, and 1 (yes) for everything at or above.

Example cases with answers are listed next.
• GGTAAGCCATGGACCGGTTTTCCCGGTAATCCGTATTTGGG (site GGTAAGCCTCC) = 1 (yes)
• AAAGCGCCATGGACCGGTTTTCCCGGTAATCCGTATTTGTG (site AAAGCGCCTCA) = 1 (yes)
• AGAACTACATGGACCGGTTTTCCCGGTAATCCGTATTTGGG (site AGAACTACTCC) = 1 (yes)

Would you say ACAAAGGCATGGACCGGTTTTCCCGGTAATCCGTATTTGCT (site ACAAAGGCTAG) shows recombinant UMI read abundance (log10) at minimum 0.02?
1 (yes)

Note, next up: CGGTCGACATGGACCGGTTTTCCCGGTAATCCGTATTTGGG (site CGGTCGACTCC)
0 (no)

Note, next up: ATCTGCCCATGGACCGGTTTTCCCGGTAATCCGTATTTGCT (site ATCTGCCCTAG)
1 (yes)

Note, next up: GGAGATCCATGGACCGGTTTTCCCGGTAATCCGTATTTGCA (site GGAGATCCTTG)
0 (no)

Note, next up: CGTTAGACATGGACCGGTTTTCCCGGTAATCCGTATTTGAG (site CGTAAGACTCT)
0 (no)

Note, next up: AGGGGCGCATGGACCGGTTTTCCCGGTAATCCGTATTTGCC (site AGGGGCGCTGG)
1 (yes)

Note, next up: CGAACGACATGGACCGGTTTTCCCGGTAATCCGTATTTGTT (site CGATCGACTAA)
0 (no)

Note, next up: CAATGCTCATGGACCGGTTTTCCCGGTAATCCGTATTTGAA (site CAGTGCTCTTT)
1 (yes)
